target: T1, BACE1 (Homo sapiens, UniProt P56817); assay: Binding kinetics by biolayer interferometry, Fabs/IgGs on BACE1; conditions: Fab, read-out: Binding Affinity KD
T1 construct: human β-secretase 1 (BACE1, residue 46-457); made in house; host or cells: HEK293F (secreted, protein A purified)
T1 sequence (P56817 46-457): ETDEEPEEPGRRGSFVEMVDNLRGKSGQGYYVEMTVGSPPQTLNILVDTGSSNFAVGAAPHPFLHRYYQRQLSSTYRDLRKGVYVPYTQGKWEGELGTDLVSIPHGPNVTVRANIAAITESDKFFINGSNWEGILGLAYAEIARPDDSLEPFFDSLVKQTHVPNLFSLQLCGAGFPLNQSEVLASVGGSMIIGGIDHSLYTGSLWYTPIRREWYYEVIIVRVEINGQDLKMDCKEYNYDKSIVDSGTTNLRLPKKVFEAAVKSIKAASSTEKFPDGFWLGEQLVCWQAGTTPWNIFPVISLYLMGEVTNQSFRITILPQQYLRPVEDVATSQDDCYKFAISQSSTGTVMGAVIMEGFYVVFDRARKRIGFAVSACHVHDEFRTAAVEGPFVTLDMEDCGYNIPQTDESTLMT
readoutType: pKd
Numbers only, as −log10 of the molar value.

In the examples that follow, each entry is paired with its recorded pKd.
• Fab B3B12: anti-BACE-1 antibody clone; VL SEQ ID NO:25, VH SEQ ID NO:29, CDR-H3 SEQ ID NO:32 (antibody, V domains shown) VH: EVQLVESGGGLVQPGGSLRLSCAASGFNIPYSSMHWVRQAPGKGLEWVASISSYSSSTSYADSVKGRFTISADTSKNTAYLQMNSLRAEDTAVYYCARYICGHRWRDFDMWRARTGVNYAMDYWGQGTLVTVSSAS VL: DIQMTQSPSSLSASVGDRVTITCRASQSVGTYLNWYQQKPGKAPKLLIYATSNLRSGVPSRFSGSGSGTDFTLTISSLQPEDFATYYCQQSYSIPRFTFGPGTKLEIKR = 8.00
• Fab B1A4: anti-BACE-1 antibody clone; VL SEQ ID NO:33, VH SEQ ID NO:37, CDR-H3 SEQ ID NO:40 (antibody, V domains shown) VH: EVQLVESGGGLVQPGGSLRLSCAASGFNISYSSIHWVRQAPGKGLEWVAYISPSSSYTSYADSVKGRFTISADTSKNTAYLQMNSLRAEDTAVYYCARHYYVSVGSGIDYWGQGTLVTVSSAS VL: DIQMTQSPSSLSASVGDRVTITCRASQSVSSAVAWYQQKPGKAPKLLIYSASSLYSGVPSRFSGSRSGTDFTPTISSLQPEDFATYYCQQASASPYALITFGQGTKVEIKR = 7.68

Kindly consider the entry below.
Data request: For the molecule Fab B2B2: anti-BACE-1 antibody clone; VL SEQ ID NO:44, VH SEQ ID NO:46, CDR-H3 SEQ ID NO:49 (antibody, V domains shown) VH: EVQLVESGGGLVQPGGSLRLSCAASGFNISSYYMHWVRQAPGKGLEWVASIYSSYGYTYYADSVKGRFTISADTSKNTAYLQMNSLRAEDTAVYYCARYWGYYAWFGSHPWAYGAFDYWGQGTLVTVSSAS VL: DIQMTQSPSSLSASVGDRVTITCRASQSVSSAVAWYQQKPGKAPKLLIYSASSLYSGVPSRFSGSRSGTDFTLTISSLQPEDFATYYCQQYGYYLITFGQGTKVEIKR , give its measured pKd value.
Data returned: 7.28
